Data origin: ChEMBL document CHEMBL1141671

TARGET_OR_SYSTEM: Adenosine receptor A2a (Homo sapiens, UniProt P29274)
Sequence (P29274 whole entry): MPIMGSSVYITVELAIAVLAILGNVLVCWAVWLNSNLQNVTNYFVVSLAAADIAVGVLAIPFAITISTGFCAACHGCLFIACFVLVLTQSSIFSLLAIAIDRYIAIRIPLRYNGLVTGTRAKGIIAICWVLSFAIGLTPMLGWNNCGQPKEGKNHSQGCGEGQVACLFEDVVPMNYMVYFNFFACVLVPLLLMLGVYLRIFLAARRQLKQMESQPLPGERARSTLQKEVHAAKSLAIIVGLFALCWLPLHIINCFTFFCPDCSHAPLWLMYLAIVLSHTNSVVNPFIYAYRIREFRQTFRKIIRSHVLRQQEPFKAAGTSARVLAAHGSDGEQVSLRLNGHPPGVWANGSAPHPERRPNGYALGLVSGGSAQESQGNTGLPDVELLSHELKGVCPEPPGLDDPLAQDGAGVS
TEST_METHOD_NOTES: Displacement of [3H]CGS21680 from human recombinant adenosine A2A receptor expressed in CHO cells at 10 uM by liquid scintillation counting relative to control
Assay type: cell-based
QUANTITY_MEASURED: Activity (%)

a. O=C(Nc1ccc(Nc2nc(-c3ccccc3)nc3c2ncn3Cc2ccccc2)cc1)Nc1ccc(C(F)(F)F)cc1
b. O=C(Nc1ccc(F)cc1)Nc1ccc(Nc2nc(-c3ccccc3)nc3c2nnn3Cc2ccccc2)cc1
QUERY: For this pair, a and b , which shows a numerically higher Activity? Kindly give the label for the entry you pick.
RESULT: b
(b: 176%, a: 57%)
